Every entry's value here was drawn from patent US20160303184A1.

Experiment: Single dose pharmacokinetics
Assay type: in vivo, CD-1 female mice
Conditions: female, CD-1, mouse, iv; 12 mg/kg single i.v., mice, plasma
assayMetric: half-life (h)
Note: unit h is implicit; provide only the numeric part.

# input Please look up its half-life: CCCCCCCCCCN[C@]1(C)C[C@H](OC2C(O)[C@@H](O)C(CO)O[C@@H]2Oc2c3cc4cc2Oc2ccc(cc2Cl)[C@@H](O)[C@@H](NC(=O)[C@@H](CC(C)C)NC)C(=O)N[C@@H](CC(N)=O)C(=O)N[C@H]4C(=O)N[C@H]2C(=O)N[C@H](C(=O)N[C@H](C(=O)NCCCNC(=O)[C@H](O)[C@@H](O)[C@H](OC4OC(CO)C(O)C(O)[C@H]4O)[C@H](O)CO)c4cc(O)cc(O)c4-c4cc2ccc4O)[C@H](O)c2ccc(c(Cl)c2)O3)OC(C)[C@@H]1O (stereo partly shown)
# output 2.76

---

Assay: Single dose pharmacokinetics
Type: in vivo, CD-1 female mice
Conditions: female, CD-1, mouse, plasma, iv; 12 mg/kg single i.v., mice, 0.083 h to 24 h
Experimental: A single dose pharmacokinetic analysis of compound 7 was performed in CD-1 female mice. Mice were administered a single intravenous dose of 12 mg/kg. […] The plasma was separated by centrifugation, and drug plasma concentrations were measured by microbiologic assay with Bacillus subtilis as the test organism. […] Pharmacokinetic parameters, including half-life, AUC and Cmax were calculated by using non-compartmental model.
assayMetric: AUC (µg·h/mL)
Please state the figure in µg·h/mL; there is no need to write the unit.

# input State the recorded AUC for this entry: CCCCCCCCCCN[C@]1(C)C[C@H](OC2C(O)[C@@H](O)C(CO)O[C@@H]2Oc2c3cc4cc2Oc2ccc(cc2Cl)[C@@H](O)[C@@H](NC(=O)[C@@H](CC(C)C)NC)C(=O)N[C@@H](CC(N)=O)C(=O)N[C@H]4C(=O)N[C@H]2C(=O)N[C@H](C(=O)N[C@H](C(=O)NCCCNC(=O)[C@H](O)[C@@H](O)[C@H](OC4OC(CO)C(O)C(O)[C@H]4O)[C@H](O)CO)c4cc(O)cc(O)c4-c4cc2ccc4O)[C@H](O)c2ccc(c(Cl)c2)O3)OC(C)[C@@H]1O (stereo partly shown)
# output 562

---

Experiment: Single dose pharmacokinetics
Assay type: in vivo, CD-1 female mice
Design: unit not given here
Settings: female, CD-1, mouse, plasma, iv; 12 mg/kg single i.v., mice
assayMetric: clearance
Output spec: single numeric token, no unit.

# input What value of clearance has been reported for the following compound? CCCCCCCCCCN[C@]1(C)C[C@H](OC2C(O)[C@@H](O)C(CO)O[C@@H]2Oc2c3cc4cc2Oc2ccc(cc2Cl)[C@@H](O)[C@@H](NC(=O)[C@@H](CC(C)C)NC)C(=O)N[C@@H](CC(N)=O)C(=O)N[C@H]4C(=O)N[C@H]2C(=O)N[C@H](C(=O)N[C@H](C(=O)NCCCNC(=O)[C@H](O)[C@@H](O)[C@H](OC4OC(CO)C(O)C(O)[C@H]4O)[C@H](O)CO)c4cc(O)cc(O)c4-c4cc2ccc4O)[C@H](O)c2ccc(c(Cl)c2)O3)OC(C)[C@@H]1O (stereo partly shown)
# output 4.17

---

System: Methicillin-sensitive S. aureus (MTCC 737)
Assay: MIC, micro-dilution broth, MSSA
Assay type: cell-based
Details: Staphylococcus aureus, MTCC 737; read-out: MIC MSSA
assayMetric: MIC (µM)
State the answer as a number, implicitly in µM.

Answered examples (4):
[[record]]
compound = "CCCCCCCCCCN[C@]1(C)C[C@H](OC2C(O)[C@@H](O)C(CO)O[C@@H]2Oc2c3cc4cc2Oc2ccc(cc2Cl)[C@@H](O)[C@@H](NC(=O)[C@@H](CC(C)C)NC)C(=O)N[C@@H](CC(N)=O)C(=O)N[C@H]4C(=O)N[C@H]2C(=O)N[C@H](C(=O)N[C@H](C(=O)O)c4cc(O)cc(O)c4-c4cc2ccc4O)[C@H](O)c2ccc(c(Cl)c2)O3)OC(C)[C@@H]1O (some centres unmarked)"
measurednumber = 0.3

[[record]]
compound = "CN[C@H](CC(C)C)C(=O)N[C@H]1C(=O)N[C@@H](CC(N)=O)C(=O)N[C@H]2C(=O)N[C@H]3C(=O)N[C@H](C(=O)N[C@H](C(=O)NCCCNC(=O)[C@H](O)[C@@H](O)[C@H](OC4OC(CO)C(O)C(O)C4O)[C@H](O)CO)c4cc(O)cc(O)c4-c4cc3ccc4O)[C@H](O)c3ccc(c(Cl)c3)Oc3cc2cc(c3O[C@H]2OC(CO)[C@H](O)C(O)C2O[C@H]2C[C@@](C)(N)[C@H](O)C(C)O2)Oc2ccc(cc2Cl)[C@H]1O (some centres unmarked)"
measurednumber = 0.3

[[record]]
compound = "CCCCCCCCN[C@]1(C)C[C@H](OC2C(O)[C@@H](O)C(CO)O[C@@H]2Oc2c3cc4cc2Oc2ccc(cc2Cl)[C@@H](O)[C@@H](NC(=O)[C@@H](CC(C)C)NC)C(=O)N[C@@H](CC(N)=O)C(=O)N[C@H]4C(=O)N[C@H]2C(=O)N[C@H](C(=O)N[C@H](C(=O)NCCCNC(=O)[C@H](O)[C@@H](O)[C@H](OC4OC(CO)C(O)C(O)C4O)[C@H](O)CO)c4cc(O)cc(O)c4-c4cc2ccc4O)[C@H](O)c2ccc(c(Cl)c2)O3)OC(C)[C@@H]1O (some centres unmarked)"
measurednumber = 0.2

[[record]]
compound = "CN[C@H](CC(C)C)C(=O)N[C@H]1C(=O)N[C@@H](CC(N)=O)C(=O)N[C@H]2C(=O)N[C@H]3C(=O)N[C@H](C(=O)N[C@H](C(=O)NCCOC4OC(CO)C(O)C(O)C4O)c4cc(O)cc(O)c4-c4cc3ccc4O)[C@H](O)c3ccc(c(Cl)c3)Oc3cc2cc(c3O[C@H]2OC(CO)[C@H](O)C(O)C2O[C@H]2C[C@@](C)(N)[C@H](O)C(C)O2)Oc2ccc(cc2Cl)[C@H]1O (some centres unmarked)"
measurednumber = 1.4


// moving on: another record for MIC
# input For CN[C@H](CC(C)C)C(=O)N[C@H]1C(=O)N[C@@H](CC(N)=O)C(=O)N[C@H]2C(=O)N[C@H]3C(=O)N[C@H](C(=O)N[C@H](C(=O)NCCCNCC(O)C(O)C(OC4OC(CO)C(O)C(O)C4O)C(O)CO)c4cc(O)cc(O)c4-c4cc3ccc4O)[C@H](O)c3ccc(c(Cl)c3)Oc3cc2cc(c3O[C@H]2OC(CO)[C@H](O)C(O)C2O[C@H]2C[C@@](C)(N)[C@H](O)C(C)O2)Oc2ccc(cc2Cl)[C@H]1O (some centres unmarked) , what is its reported MIC?
# output 1
